# Tested on: Staphylococcus aureus
# test details: Antibacterial activity against Staphylococcus aureus MTCC 96 after overnight incubation by broth dilution method
# Format: functional
Mark satisfied only for MIC99 values smaller than 200 µg/mL; exact matches and larger values are not satisfied.

CC1(C)S[C@@H]2[C@H](NC(=O)[C@H](N)c3ccccc3)C(=O)N2[C@H]1C(=O)O [AMPICILLIN] | not satisfied
O=C(Nn1c(CNN2C(=O)C(Cl)C2c2ccccc2Cl)nc2ccccc2c1=O)c1ccncc1 (configuration not stated) | not satisfied
CCn1cc(C(=O)O)c(=O)c2cc(F)c(N3CCNCC3)cc21 [NORFLOXACIN] | satisfied
O=C(Nn1c(CNN2C(=O)C(Cl)C2c2ccccc2)nc2ccccc2c1=O)c1ccncc1 (configuration not stated) | not satisfied
O=C(N[C@H](CO)[C@H](O)c1ccc([N+](=O)[O-])cc1)C(Cl)Cl [CHLORAMPHENICOL] | satisfied

Note: attention shifts to another entry.
Q: Answer whether the compound O=C(O)c1cn(C2CC2)c2cc(N3CCNCC3)c(F)cc2c1=O [CIPROFLOXACIN] has MIC99 strictly less than 200 µg/mL
Result: satisfied
